Each item that follows carries a reported pIC50.
target: 3-oxo-5-alpha-steroid 4-dehydrogenase 1 (Homo sapiens, UniProt P18405)
Sequence (P18405 whole entry): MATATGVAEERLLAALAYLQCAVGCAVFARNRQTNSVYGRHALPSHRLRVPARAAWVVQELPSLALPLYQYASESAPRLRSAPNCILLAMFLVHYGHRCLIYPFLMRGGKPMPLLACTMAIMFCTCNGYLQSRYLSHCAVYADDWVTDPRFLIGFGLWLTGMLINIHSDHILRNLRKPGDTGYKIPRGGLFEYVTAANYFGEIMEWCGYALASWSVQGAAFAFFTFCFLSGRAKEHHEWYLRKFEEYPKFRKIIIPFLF
Keep it numeric: pIC50 is minus log10 of the concentration in mol/L.

Reported pIC50 for 3-oxo-5-alpha-steroid 4-dehydrogenase 1 (Homo sapiens, UniProt P18405), given CC(NC(=O)[C@H]1CC[C@H]2[C@@H]3CC[C@H]4NC(=O)C=C[C@]4(C)[C@H]3CC[C@]12C)(c1ccccc1)C(F)(F)F (some centres not stated) ?
7.80

Reported pIC50 for 3-oxo-5-alpha-steroid 4-dehydrogenase 1 (Homo sapiens, UniProt P18405), given C[C@]12C=CC(=O)N[C@@H]1CC[C@@H]1[C@@H]2CC[C@]2(C)[C@@H](C(=O)NC(c3ccccc3)(C(F)(F)F)C(F)(F)F)CC[C@@H]12 ?
7.70

###

molecular target: Tyrosine-protein phosphatase non-receptor type 1 (Homo sapiens, UniProt P18031)
Sequence (P18031 whole entry): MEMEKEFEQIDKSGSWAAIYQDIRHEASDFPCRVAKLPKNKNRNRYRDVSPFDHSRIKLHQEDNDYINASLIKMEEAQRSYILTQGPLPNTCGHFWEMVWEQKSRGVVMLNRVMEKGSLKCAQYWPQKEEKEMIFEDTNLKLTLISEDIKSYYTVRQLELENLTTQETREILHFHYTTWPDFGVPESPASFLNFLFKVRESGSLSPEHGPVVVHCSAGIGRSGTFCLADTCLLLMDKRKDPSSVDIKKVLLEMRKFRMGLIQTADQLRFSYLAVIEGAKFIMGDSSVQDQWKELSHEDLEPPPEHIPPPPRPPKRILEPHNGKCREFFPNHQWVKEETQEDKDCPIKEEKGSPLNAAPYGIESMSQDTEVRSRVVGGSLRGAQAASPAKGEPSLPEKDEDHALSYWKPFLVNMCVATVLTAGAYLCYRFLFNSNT
Measured Metric: EC50 (nM)
Only the number, expressed in nM, is required.

Reported EC50 for Tyrosine-protein phosphatase non-receptor type 1 (Homo sapiens, UniProt P18031), given O=C(c1ccccc1)C(Cc1ccc(C(F)(F)P(=O)(O)O)c(Br)c1)c1ccccc1 (stereo unspecified) ?
1200

###

Target: 3-oxo-5-alpha-steroid 4-dehydrogenase 2 (Rattus norvegicus)
Sequence (P31214 whole entry): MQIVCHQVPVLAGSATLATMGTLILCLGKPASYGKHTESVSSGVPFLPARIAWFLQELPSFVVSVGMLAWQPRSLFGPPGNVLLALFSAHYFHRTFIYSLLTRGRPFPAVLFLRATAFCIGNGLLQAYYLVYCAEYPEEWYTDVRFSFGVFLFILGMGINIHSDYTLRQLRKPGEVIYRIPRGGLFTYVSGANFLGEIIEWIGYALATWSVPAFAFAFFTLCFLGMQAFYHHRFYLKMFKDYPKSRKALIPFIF
Measured Metric: IC50
Enter the number, and then the unit.

> print(dat)
                                   compound  result
1  CC(NC(=O)[C@H]1CC[C@H]2[C@@H]3CC[C@H]4NC(=O)C=C[C@]4(C)[C@H]3CC[C@]12C)(c1ccccc1)C(F)(F)F (stereo partly drawn)   15 nM
2  CC(C)(C)NC(=O)[C@H]1CC[C@H]2[C@@H]3CC[C@H]4NC(=O)C=C[C@]4(C)[C@H]3CC[C@]12C [FINASTERIDE]   32 nM

Now consider the entry below.
Reported IC50 for 3-oxo-5-alpha-steroid 4-dehydrogenase 2 (Rattus norvegicus), given C[C@]12C=CC(=O)N[C@@H]1CC[C@@H]1[C@@H]2CC[C@]2(C)[C@@H](C(=O)NC(c3ccccc3)(C(F)(F)F)C(F)(F)F)CC[C@@H]12 ?
34 nM

###

molecular target: UniProt P62942
Sequence (P62942 whole entry): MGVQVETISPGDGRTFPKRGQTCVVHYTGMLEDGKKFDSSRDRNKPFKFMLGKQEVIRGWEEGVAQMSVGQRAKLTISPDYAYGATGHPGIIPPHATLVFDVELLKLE
Measured Metric: Ki (µM)
Only the number, expressed in µM, is required.

What Ki value was documented for this molecule, COc1cc(C(=O)C(=O)N2CCC[C@H]2C(=O)OCCCc2cccnc2)cc(OC)c1OC ?
4

###

Target: Steryl-sulfatase (Homo sapiens, UniProt P08842)
Sequence (P08842 whole entry): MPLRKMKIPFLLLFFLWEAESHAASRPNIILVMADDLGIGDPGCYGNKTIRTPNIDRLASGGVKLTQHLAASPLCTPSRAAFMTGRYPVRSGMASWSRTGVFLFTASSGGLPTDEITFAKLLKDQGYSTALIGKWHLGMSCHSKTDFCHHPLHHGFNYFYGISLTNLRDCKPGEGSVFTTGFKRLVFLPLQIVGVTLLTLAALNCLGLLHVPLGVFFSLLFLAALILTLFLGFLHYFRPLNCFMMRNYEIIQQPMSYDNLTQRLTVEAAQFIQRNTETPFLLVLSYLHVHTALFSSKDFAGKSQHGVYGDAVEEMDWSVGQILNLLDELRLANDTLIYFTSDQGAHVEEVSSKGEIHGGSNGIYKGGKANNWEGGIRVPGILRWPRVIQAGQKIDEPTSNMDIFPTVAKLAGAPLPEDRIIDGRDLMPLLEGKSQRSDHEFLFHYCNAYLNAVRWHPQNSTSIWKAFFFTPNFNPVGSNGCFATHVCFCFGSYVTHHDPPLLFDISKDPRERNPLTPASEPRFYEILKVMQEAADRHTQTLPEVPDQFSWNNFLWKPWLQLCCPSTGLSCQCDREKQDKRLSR
Measured Metric: Ki (µM)
Only the number, expressed in µM, is required.

What Ki value was documented for this molecule, C[C@]12CC[C@@H]3c4ccc(C(F)(F)S(N)(=O)=O)cc4CC[C@H]3[C@@H]1CCC2=O ?
28

What Ki value was documented for this molecule, C[C@]12CC[C@@H]3c4ccc(C(F)(F)S(=O)(=O)O)cc4CC[C@H]3[C@@H]1CCC2=O ?
147

###

Each item that follows carries a reported logD.
experiment: physchem; settings: buffer, pH 7.4
Output spec: single numeric token, no unit.

> print(dat)
                            compound.string  result
1  CC(C)C[C@H](NC(=O)[C@@H](/C=C(\F)CNC(=O)CNC(=O)[C@@H](N)Cc1ccc(O)cc1)Cc1ccccc1)C(=O)O   -0.11

Now consider the entry below.
What logD value was documented for this compound, CC(C)C[C@H](NC(=O)[C@@H](/C=C/CNC(=O)CNC(=O)[C@@H](N)Cc1ccc(O)cc1)Cc1ccccc1)C(=O)O ?
-0.07

###

Quick record: pIC50, 3-oxo-5-alpha-steroid 4-dehydrogenase 2 (Homo sapiens, UniProt P31213).
pIC50: −log10 of the molar value.

> print(dat)
                                   molecule   result
1  C[C@]12C=CC(=O)N[C@@H]1CC[C@@H]1[C@@H]2CC[C@]2(C)[C@@H](C(=O)Nc3cc(C(F)(F)F)ccc3C(F)(F)F)CC[C@@H]12 [DUTASTERIDE]  > 10.00

Now consider the entry below.
What pIC50 value was documented for this molecule, CC(C)(C)NC(=O)[C@H]1CC[C@H]2[C@@H]3CC[C@H]4NC(=O)C=C[C@]4(C)[C@H]3CC[C@]12C [FINASTERIDE] ?
7.95 to 9.74

###

biological target: D(2) dopamine receptor (Homo sapiens) (UniProt P14416)
Sequence (P14416 whole entry): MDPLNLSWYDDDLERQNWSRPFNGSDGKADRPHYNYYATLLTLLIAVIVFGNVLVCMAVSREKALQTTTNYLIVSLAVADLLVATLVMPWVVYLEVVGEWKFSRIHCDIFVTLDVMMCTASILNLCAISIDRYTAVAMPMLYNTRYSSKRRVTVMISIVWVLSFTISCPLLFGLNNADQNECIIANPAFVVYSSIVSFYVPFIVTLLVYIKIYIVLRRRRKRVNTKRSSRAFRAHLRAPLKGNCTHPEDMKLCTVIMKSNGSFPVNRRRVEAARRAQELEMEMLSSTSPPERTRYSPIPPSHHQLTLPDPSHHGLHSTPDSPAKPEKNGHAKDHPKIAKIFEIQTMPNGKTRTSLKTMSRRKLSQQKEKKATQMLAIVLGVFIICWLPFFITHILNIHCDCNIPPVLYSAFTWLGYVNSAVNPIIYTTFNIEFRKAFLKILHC
Each item that follows carries a reported KiH.
Only the number, expressed in nM, is required.

> print(dat)
                                   compound  result
1          Oc1nc2c(OCCNCc3ccccc3)cccc2[nH]1    0.18
2  FC(F)(F)c1nc2c3c(ccc2[nH]1)CCC(CNCc1ccccc1)O3 (configuration not stated)    5.75
3  Oc1nc2c3c(ccc2[nH]1)CCC(CNCc1ccccc1)O3 (configuration not stated)    0.14

Now consider the entry below.
What KiH value was documented for this compound, O=C1Cc2c(ccc3c2OC(CNCc2ccccc2)CC3)N1 (configuration not stated) ?
0.37

###

molecular target: Delta-type opioid receptor (Homo sapiens)
Sequence (P41143 whole entry): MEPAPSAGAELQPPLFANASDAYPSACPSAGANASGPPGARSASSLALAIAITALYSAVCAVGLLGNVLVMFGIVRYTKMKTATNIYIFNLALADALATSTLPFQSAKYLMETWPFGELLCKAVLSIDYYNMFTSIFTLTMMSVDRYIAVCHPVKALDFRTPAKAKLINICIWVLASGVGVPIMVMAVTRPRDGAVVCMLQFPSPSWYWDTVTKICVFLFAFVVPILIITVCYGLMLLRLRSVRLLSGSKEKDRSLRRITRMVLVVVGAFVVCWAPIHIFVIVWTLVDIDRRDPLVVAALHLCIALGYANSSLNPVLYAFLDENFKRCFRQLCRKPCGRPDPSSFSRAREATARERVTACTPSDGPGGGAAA
Square brackets hold non-standard residues; d marks the D form. Peptide text beside a SMILES is read from it. PhLac = O=C(O)[C@@H](O)Cc1ccccc1
Measured Metric: pKi
Keep it numeric: pKi is minus log10 of the concentration in mol/L.

> print(dat)
                                   compound  measured.metric  result
1  CC(C)C[C@H](NC(=O)[C@@H](/C=C(\F)CNC(=O)CNC(=O)[C@@H](N)Cc1ccc(O)cc1)Cc1ccccc1)C(=O)O              pKi    7.37

Reported pKi for Delta-type opioid receptor (Homo sapiens), given CC(C)C[C@H](NC(=O)[C@H](Cc1ccccc1)OC(=O)CNC(=O)CNC(=O)[C@@H](N)Cc1ccc(O)cc1)C(=O)O (H-YGG[PhLac]L-OH) ?
7.47

Reported pKi for Delta-type opioid receptor (Homo sapiens), given CC(C)C[C@H](NC(=O)[C@H](Cc1ccccc1)NC(=S)CNC(=O)CNC(=O)[C@@H](N)Cc1ccc(O)cc1)C(=O)O ?
7.33

Reported pKi for Delta-type opioid receptor (Homo sapiens), given CC(C)C[C@H](NC(=O)[C@@H](/C=C/CNC(=O)CNC(=O)[C@@H](N)Cc1ccc(O)cc1)Cc1ccccc1)C(=O)O ?
6.23

###

Quick record: pIC50, 3-oxo-5-alpha-steroid 4-dehydrogenase 1 (Homo sapiens, UniProt P18405).
Keep it numeric: pIC50 is minus log10 of the concentration in mol/L.

Please review the following examples before continuing.
> print(dat)
                                   compound  measured.metric  result
1  CC(NC(=O)[C@H]1CC[C@H]2[C@@H]3CC[C@H]4NC(=O)C=C[C@]4(C)[C@H]3CC[C@]12C)(c1ccccc1)C(F)(F)F (some centres undefined)            pIC50    7.44
2  C[C@]12C=CC(=O)N[C@@H]1CC[C@@H]1[C@@H]2CC[C@]2(C)[C@@H](C(=O)NC(c3ccccc3)(C(F)(F)F)C(F)(F)F)CC[C@@H]12            pIC50    8.41

Now consider the entry below.
Reported pIC50 for 3-oxo-5-alpha-steroid 4-dehydrogenase 1 (Homo sapiens, UniProt P18405), given C[C@]12C=CC(=O)N[C@@H]1CC[C@@H]1[C@@H]2CC[C@]2(C)[C@@H](C(=O)Nc3cc(C(F)(F)F)ccc3C(F)(F)F)CC[C@@H]12 [DUTASTERIDE] ?
8.40
